Just for reference, PubChem BioAssay is where these values come from.

- measured_on: Streptavidin (Streptomyces avidinii)
- procedure_summary: streptavidin binders on small-molecule microarray, primary screen, artefact control for SMM compound annotation, biophysical, 635/667 nm fluorescence (AID 1147);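 note: signal reflects streptavidin binding to arrayed compounds as a control protein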
- experimental_setup: streptavidin binding, higher = more signal
Listed here are compounds together with their documented composite z-score.
experimental_readout: composite z-score

>>> reported("C#CCNC(=O)[C@H](Cc1ccccc1)NC(=O)[C@@H](N=[N+]=[N-])C(C)C")
-0.0247
>>> reported("C=CC[C@@]12N=C(c3ccc(OCCCO)cc3)O[C@@H]1c1ccccc1N(CCS(=O)(=O)c1ccccc1)C2=O")
1.41
>>> reported("CCOC(=O)C[C@H]1[C@H](OC(=O)c2ccc(-c3ccccc3)cc2)[C@@H](NC(=O)C2CCCCC2)c2cc(OCCCO)ccc2N1C(=O)c1ccccc1")
0.947
>>> reported("CC[C@H]1C2=C3C(CC[C@H]4C(OCc5ccc(F)cc5C(F)(F)F)OC[C@](C)([C@@H]34)N(C(=O)OC(C)(C)C)C2)C2COC(=O)OCC21 (some centres not stated)")
1.44
>>> reported("CO[C@H]1O[C@H](CO)[C@@H](OC(=O)c2ccc(Br)cc2)[C@@H]2OC(=O)[C@@H](Cc3ccc4ccccc4c3)C/C=C/C[C@H](Cc3ccc4ccccc4c3)C(=O)O[C@@H]12")
0.48
>>> reported("Cc1ccc(S[C@]2(C(=O)NCC(C)C)CC(=O)N(Cc3ccccc3Cl)[C@@H]2c2ccc(CO)cc2I)cc1")
-0.942
>>> reported("O=C1O[C@@H](c2ccccc2)[C@@H](c2ccccc2)N2[C@@H](c3ccccc3OCCO)[C@]3(C(=O)Nc4ccc(C#CC5=CCCCC5)cc43)[C@@H](C(=O)NC[C@H](O)c3ccccc3)[C@H]12")
0.625

----------
- procedure_summary: small-molecule microarray binders of probe aDKK1, primary screen, biochemical, biotinylated probe, 635/667 nm fluorescence (AID 1099);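 note: score merges 667nm spot fluorescence with signal to noise across triplicate slides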
- experimental_setup: higher = more signal
Listed here are compounds together with their documented composite z-score.
experimental_readout: composite z-score

>>> reported("Cc1ccc(S[C@]2(C(=O)NC(C)C)CC(=O)N(Cc3ccccc3C(F)(F)F)[C@@H]2c2ccc(CO)cc2I)cc1")
0.386
>>> reported("CC=CC(O)C1C=CC2C(=O)N(C)C(=O)C2N1N1CCCCC1 (stereo unspecified)")
0.123
>>> reported("C[C@]12C(=O)N(CCCCCCO)[C@@H]3C(=O)N(c4ccc(Cl)cc4)CC=CC31O[C@@H]1/C=C\\CCCOC(=O)C12 (stereo partly specified)")
-0.134
>>> reported("O=C1O[C@@H](c2ccccc2)[C@@H](c2ccccc2)N2[C@@H](c3ccccc3OCCO)[C@]3(C(=O)Nc4ccc(C#CCCO)cc43)[C@@H](C(=O)N3CCN(c4ncccn4)CC3)[C@H]12")
-0.0415
>>> reported("CCOC(=CC(=O)OC)CC(O)c1cccc(Cl)c1 (stereo unspecified)")
-0.132
>>> reported("CCOC(=O)C1=CC[C@@H](c2ccccc2)N(S(=O)(=O)c2ccc(C)cc2)C1")
0.617
>>> reported("COc1c(C)cc(-c2cc3c(c(-c4ccccc4)n2)[Si](C(C)C)(C(C)C)OC3)cc1C")
0.068
>>> reported("COCC(=C=CC[C@H](O)c1cccc(OCCO)c1)C[C@H](O)c1ccccn1")
0.161
>>> reported("CC1CC/C=C\\[C@H]2OC34C=CCN(C(C)C)C(=O)[C@H]3N(CCCCCO)C(=O)[C@@H]4C2C(=O)O1 (stereo partly specified)")
-0.0733
>>> reported("O=C1NC(=O)C2C1C=CC(C(O)c1ccc(Br)cc1)N2Nc1ccccn1 (stereo unspecified)")
0.71
>>> reported("NC(N)=NCc1cn(CCc2c[nH]c3ccccc23)nn1")
0.0191
>>> reported("COCCOC(=O)N1C(=O)[C@@]2(c3cc(C#Cc4ccc(OC)cc4)ccc31)[C@H](C(=O)NC[C@H](O)c1ccccc1)[C@H]1C(=O)O[C@H](c3ccccc3)[C@H](c3ccccc3)N1[C@@H]2c1ccc(O)cc1")
0.139
>>> reported("COC(=O)[C@@]1(Cc2ccc(OC)cc2)[C@H]2c3cc(C(=O)N(C)C)n(CCc4c[nH]c5ccc(O)cc45)c3C[C@H]2CN1C(=O)c1ccccc1")
1.43
>>> reported("CN(C)CCCNC(=O)[C@@H]1c2ccccc2C(=O)N(Cc2ccc(OC(F)(F)F)cc2)[C@H]1c1ccc(CO)cc1")
-0.115
>>> reported("COC(=O)[C@@]1(Cc2ccccc2)[C@H]2c3cc(C(=O)N4CCCC4)[nH]c3C[C@H]2CN1C(=O)c1ccccc1")
0.865
>>> reported("CN1C(=O)C2C=CC(C(O)c3c(F)cccc3Cl)N(Nc3ccccc3)C2C1=O (stereo unspecified)")
0.308

----------
Listed here are compounds together with their documented composite z-score.
- Test system: Plasmodium falciparum Sir2 (PF13_0152, Sir2A)
- procedure_summary: pfSir2 binders on small-molecule microarrays, primary screen, biochemical, small-molecule microarray, 635 nm fluorescence (AID 1098);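 note: score merges spot fluorescence intensity with its signal-to-noise ratio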
- experimental_setup: small-molecule microarray binding, fluorescence 635 nm; higher = more signal
experimental_readout: composite z-score

>>> reported("CC(C)(C)OC(=O)CC[C@]1(C(=O)NCCN2CCOCC2)N=C(c2ccc(OCCCO)cc2)O[C@H]1c1ccccc1")
1
>>> reported("COC(=O)[C@@]1(Cc2ccc(F)cc2)[C@H]2c3cc(C(=O)N4CCCC4)n(CCF)c3C[C@H]2CN1C(=O)c1ccccc1")
1.62
>>> reported("COCCOC(=O)N1C(=O)[C@@]2(c3cc(C#CC4=CCCCC4)ccc31)[C@H](c1ccc(O)cc1)N1[C@H](c3ccccc3)[C@H](c3ccccc3)OC(=O)[C@H]1[C@@H]2C(=O)Nc1nc2ccccc2s1")
1.56
>>> reported("CCCNC(=O)[C@@]1(c2ccc([N+](=O)[O-])cc2)CC(=O)N(C2CCCCC2)[C@@H]1c1ccc(CO)cc1I")
1.51
>>> reported("CC(C)C(=C=CC[C@H](O)c1ccc(OCCO)cc1)C[C@H](O)c1cc(Cl)cc(Cl)c1O")
0.631
>>> reported("C[C@H]1C2=C3C(CC[C@H]4C(OCc5ccc(F)cc5C(F)(F)F)OC[C@](C)([C@@H]34)N(C(=O)OC(C)(C)C)C2)C2COC(=O)OCC21 (some centres not stated)")
0.0559
>>> reported("CC(C)CNC(=O)[C@@H]1c2ccccc2C(=O)N(Cc2cc(F)cc(C(F)(F)F)c2)[C@H]1c1ccc(CO)cc1")
0.311

----------
- procedure_summary: S. cerevisiae RM11-1a growth modifiers, primary screen, strain RM11-1a, OD600, basal, 24 h (AID 1177);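 note: cultures grown under basal conditions with no added stressor; test concentration not given here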
- experimental_setup: OD600, 24 h, higher = more signal, called active from +8 up or from −8 down
Listed here are compounds together with their documented z-score.
experimental_readout: z-score

>>> reported("O=C1O[C@@H](c2ccccc2)[C@@H](c2ccccc2)N2[C@@H](c3ccccc3OCCO)[C@]3(C(=O)Nc4ccccc43)[C@@H](C(=O)NC[C@H](O)c3ccccc3)[C@H]12")
3.08
>>> reported("CC(C)(C)OC(=O)CC[C@]1(C(=O)NCCN2CCOCC2)N=C(c2ccc(OCCCO)cc2)O[C@H]1c1ccccc1N=[N+]=[N-]")
-0.279
>>> reported("C=C(COC)/C(=C/C[C@@H](OC(=O)c1ccncc1)c1ccc(CO)o1)c1cnc2ccccc2c1")
1.2
>>> reported("COCCOC(=O)N1C(=O)[C@@]2(c3cc(C#CC4(O)CCCCCC4)ccc31)[C@H](C(N)=O)[C@H]1C(=O)O[C@H](c3ccccc3)[C@H](c3ccccc3)N1[C@@H]2c1ccccc1OCCO")
2.26
>>> reported("C=C(/C(=C/C[C@@H](OC(=O)c1ccncc1)c1ccc(OCCO)cc1)c1cc(C(=O)OC)ccc1OC)C(C)C")
-0.0338
>>> reported("COc1ccc([Si](C)(C)[C@H]2[C@H](CCn3cc([C@H](O)c4ccccc4)nn3)O[C@@]3(C(=O)N(Cc4cccc(N5C(=O)c6cccc7cccc5c67)c4)c4ccccc43)[C@@H]2C)cc1")
0.378
>>> reported("CCOC(=O)C[C@H]1[C@H](OC(=O)Cc2ccc3c(c2)OCO3)[C@@H](NC(=O)Cc2ccc(OC)cc2)c2cc(OCCCO)ccc2N1C(=O)c1ccccc1")
0.42
>>> reported("O=C1NC(=O)C2C1C=CC(C(O)c1ccc(Br)cc1)N2Nc1ccccn1 (stereo not drawn)")
-1.44
>>> reported("C=CCOC(=O)[C@H]1[C@@H]2C(=O)O[C@@H](c3ccccc3)[C@@H](c3ccccc3)N2[C@@H](c2ccc(OCCOC(=O)[C@H]3C[C@H]4C(=O)N[C@@H](Cc5ccccc5)C(=O)N4[C@H]3c3ccc(O)cc3)cc2)[C@]12C(=O)Nc1ccc(I)cc12")
1.66
>>> reported("CN(C)C(=O)[C@]1(CCC(=O)OC(C)(C)C)N=C(c2ccc(OCCCO)cc2)O[C@@H]1c1ccccc1")
0.0653
>>> reported("O=C1OCC=C[C@H]2OC34C=CCN(c5ccc(Cl)cc5)C(=O)[C@H]3N(CCCCCO)C(=O)[C@@H]4[C@@H]12 (stereo partly drawn)")
0.119
>>> reported("C=C(/C(=C/C[C@@H](OC(=O)c1ccncc1)c1ccccc1OCCO)c1cc(C(=O)OC)ccc1OC)C(C)C")
-0.0487
>>> reported("COCCOC(=O)N1C(=O)[C@@]2(c3cc(C#CC4=CCCCC4)ccc31)[C@H](c1ccc(O)cc1)N1[C@H](c3ccccc3)[C@H](c3ccccc3)OC(=O)[C@H]1[C@@H]2C(=O)Nc1nc2ccccc2s1")
0.297
